- protocol notes: NCI Yeast Anticancer Drug Screen. Data for the bub3 strain (AID 167)
- measurement parameters: S. cerevisiae bub3 mutant strain, at 5.0 µM (retest, dose inferred, filed as 0.5), stronger effect = higher value
Compounds without any hit were thinned out: in the full panel of roughly 79,000, 15% have a hit.
Here the recorded growth inhibition is given for each entry.
Give your result in % as a bare value.

Known growth inhibition results, listed for orientation:
>>> obs_value("CCCCCCCCCCCC[N+](C)(C)C (tested in a mixture with another compound)")
20
>>> obs_value("CCCCCCNC(=S)N/N=C(\\C)c1ccccn1")
98
>>> obs_value("ClC/C=C/c1ccccc1")
7
>>> obs_value("COc1cc[c]([Sn]([O][Sn]([Cl])([c]2ccc(OC)cc2)[c]2ccc(OC)cc2)[c]2ccc(OC)cc2)cc1")
50
>>> obs_value("CCCCN1C(=O)C(=O)N(c2ccccc2)C1=O")
-21
>>> obs_value("CN(C)CCOc1cc2c(c3ccccc13)-c1ccccc1C2O (stereo not given)")
2

Now examine the next entry.
Just so you know, measured growth inhibition for CCc1cccc(C)c1N1C(=O)C(=O)C(c2nc3ccccc3o2)/C(=N\NS(=O)(=O)c2ccc(C)cc2)C1=O (stereo not given) came out at 8
